Recorded T/C, one value per entry.
System: L1210 leukemia ip in BDF1 mice, survival T/C
Experiment: NCI In Vivo Anticancer Drug Screen. Data for tumor model L1210 Leukemia (intraperitoneal) in B6D2F1 (BDF1) mice
Conditions: endpoint: mean survival time; dose: 10.0 mg/kg/injection; schedule: Q01DX001 (ip); vehicle: saline; higher = longer survival
Inconclusive results and toxic doses are left out.

COc1cccc2c1C(=O)c1c(O)c3c(c(O)c1C2=O)CC(O)(C(C)=O)CC3O (stereo not given)
94 % of control
O=[N+]([O-])c1cccc(Cl)c1Oc1cc(Cl)c(Cl)cc1Cl
96 % of control
Nc1ccc(S(=O)(=O)NCc2nccs2)cc1
100 % of control
O=S(=O)(O)CS(=O)(=O)O
100 % of control
N=C(N)c1ccc(OCCCCCCOc2ccc(C(=N)N)cc2)cc1
100 % of control
COc1ccc(N(N=O)C(C)=O)cc1
97 % of control
CC/C=N\NC
103 % of control
O=[N+]([O-])c1ccc([As+](c2ccccc2)(c2ccccc2)c2ccccc2)cc1
88 % of control
CCCCCCCCCCCCCC[n+]1cccc(C#N)c1
100 % of control

Now consider a different molecule.
The measured T/C associated with CC(C)N1CCc2cc3c(cc2C1)OCO3 reads 101 % of control

----------
System: L1210 leukemia ip in BDF1 mice, survival T/C
Assay: NCI In Vivo Anticancer Drug Screen. Data for tumor model L1210 Leukemia (intraperitoneal) in B6D2F1 (BDF1) mice
Conditions: endpoint: mean survival time; dose: 100.0 mg/kg/injection; schedule: Q04DX002 (ip); vehicle: Klucel (hydroxypropylcellulose) (HPC); higher = longer survival
Inconclusive results and toxic doses are left out.
Experimental Readout: T/C

CC(=O)Nc1cccc(N)c1
86 % of control
NC(N)=NC(N)=Nc1ccccc1
101 % of control
COP(=O)(OC)Oc1c(Cl)c(OP(=O)(OC)OC)c(Cl)c(OP(=O)(OC)OC)c1Cl
115 % of control
C/C(=N\OC(=O)c1ccc([N+](=O)[O-])cc1)C(C)(C)C
88 % of control
O=C1Nc2ccccc2C1Cc1cc2c(nn1)[nH]c1ccccc12 (stereo not drawn)
122 % of control
O=C1c2cccc3c([N+](=O)[O-])ccc(c23)C(=O)N1Cc1ccco1
108 % of control

CCCCCCCN1CCC(C(=O)CC)(c2cccc(O)c2)CC1 tested on L1210 leukemia ip in BDF1 mice, survival T/C gave T/C: 93 % of control

O=C(O)C(=O)Nc1ncccc1C(=O)O tested on L1210 leukemia ip in BDF1 mice, survival T/C gave T/C: 114 % of control

NC(=O)NNc1ccccc1 tested on L1210 leukemia ip in BDF1 mice, survival T/C gave T/C: 94 % of control

Cc1c(Cl)cccc1NC(=S)Nc1ccccc1 tested on L1210 leukemia ip in BDF1 mice, survival T/C gave T/C: 100 % of control

CSc1nc2c(c(=O)[nH]1)C1C=C(C)CCC1C(C)(C)C2 (stereo not drawn) tested on L1210 leukemia ip in BDF1 mice, survival T/C gave T/C: 98 % of control

O=C(COc1ccc(Cl)cc1Cl)OCCCl tested on L1210 leukemia ip in BDF1 mice, survival T/C gave T/C: 94 % of control

NC(=O)CCC(NC(=O)OCc1ccccc1)C(=O)NCC(=O)O (stereo not drawn) tested on L1210 leukemia ip in BDF1 mice, survival T/C gave T/C: 100 % of control
